Below, each entry is listed alongside its reported PER2::LUC luminescence.
# System: mPer2Luc MEF
# assay_comment: PER2::LUC luminescence relative to vehicle control (fold of vehicle); higher = higher PER2::LUC reporter signal
# condition_info: time after treatment: 30-hour; concentration: 0.04μM
Counter-ions that a name gives are not always drawn.
quantity_measured: PER2::LUC luminescence

compound	recorded_number
COc1cc(CCc2cc(NC(=O)c3ccc(N4CC(C)NC(C)C4)cc3)n[nH]2)cc(OC)c1 (stereo not drawn) [AZD4547]	0.796
Cc1cccc(C#Cc2ccccc2)n1 [MPEP Hydrochloride]	1.22
CCOC(=O)c1ccc(N(C)c2csc(-c3ccccc3)n2)cc1 [Neuropathiazol]	0.913

---

Below, each entry is listed alongside its reported PER2::LUC luminescence.
# Tested on: mPer2Luc MEF
# assay_comment: PER2::LUC luminescence relative to vehicle control (fold of vehicle); higher = higher PER2::LUC reporter signal
# condition_info: time after treatment: 30-hour; concentration: 0.04μM
Where a name gives a salt, the structure may show the parent alone.
quantity_measured: PER2::LUC luminescence

molecule	result
C=CC(=O)Nc1cccc(Nc2nc(Nc3ccc(Oc4ccnc(C(=O)NC)c4)cc3)ncc2F)c1 [CNX-774]	1.01
CCc1cncnc1N1CCN(Cc2nc3ccc(C(F)(F)F)cc3[nH]2)CC1	1
Cc1ccc([C@@H]2O[C@H](CO)[C@@H](O)[C@H](O)[C@H]2O)cc1Cc1ccc(-c2ccc(F)cc2)s1 [Canagliflozin]	0.996
CN1CCc2c(c3ccccc3n2Cc2ccc(C(=O)NO)cc2)C1 [Tubastatin A HCl]	0.984
O=C(c1ccc(OCCN2CCCCC2)cc1)c1c(-c2ccc(O)cc2)sc2cc(O)ccc12 [Raloxifene HCl]	1
CC1=C2C[C@H]3[C@@H](CC=C4C[C@@H](O)CC[C@@]43C)[C@@H]2CC[C@]12O[C@@H]1C[C@H](C)CN[C@H]1[C@H]2C [Cyclopamine]	0.991
O=c1c(-c2ccc(O)cc2)coc2cc(O)ccc12 [Daidzein]	0.995
O=C(O)CCCCC(CCSCc1ccccc1)SCc1ccccc1 (centres undefined) [CPI-613]	1.02
C[C@H](NC(=O)/C(C#N)=C/c1cccc(Br)n1)c1ccccc1 [WP1066]	1.02
